The reported numbers originate from ChEMBL document CHEMBL3991601.

- measuredTarget: Casein kinase I isoform delta (Homo sapiens, UniProt P48730); further: in the data inactive means no Kd found up to 30 µM
- Sequence (P48730 whole entry, canonical isoform): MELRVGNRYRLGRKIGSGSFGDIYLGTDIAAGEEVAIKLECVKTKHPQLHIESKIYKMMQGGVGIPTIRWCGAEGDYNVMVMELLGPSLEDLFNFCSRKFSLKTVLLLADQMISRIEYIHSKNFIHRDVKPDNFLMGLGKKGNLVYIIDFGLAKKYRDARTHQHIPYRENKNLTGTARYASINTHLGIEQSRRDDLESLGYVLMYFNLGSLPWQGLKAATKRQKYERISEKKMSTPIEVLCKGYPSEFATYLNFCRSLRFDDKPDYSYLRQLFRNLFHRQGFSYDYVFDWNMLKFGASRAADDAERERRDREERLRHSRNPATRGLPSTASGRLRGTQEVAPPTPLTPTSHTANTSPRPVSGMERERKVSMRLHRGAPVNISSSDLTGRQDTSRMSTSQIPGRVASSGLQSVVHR
Calls of active or inactive are those of the source.
measuredProperty: Kd

The following molecules have reported results that may help.
molecule	measuredProperty	measuredValue
O=C(Nc1ccc(-c2ccnc(Nc3ccc(N4CCOCC4)cc3)n2)cc1)C1CCCN1 (stereo not given)	Kd	> 30 µM (inactive)
CN1CC[C@@H](c2c(O)cc(O)c3c(=O)cc(-c4ccccc4Cl)oc23)[C@@H]1CO	Kd	> 30 µM (inactive)
COc1cc(CCc2cc(NC(=O)c3ccc(N4C[C@@H](C)N[C@@H](C)C4)cc3)n[nH]2)cc(OC)c1	Kd	> 30 µM (inactive)

Please supply Kd for each of the following items, keeping them in order.
1. CCn1c(=O)c(-c2cc[nH]n2)cc2c(C)nc(N)nc21
2. CC(C)Nc1cc(-c2c[nH]c(C(=O)N[C@H](CO)c3cccc(Cl)c3)c2)c(Cl)cn1
3. Cc1ccc(S(=O)(=O)Nc2nc3ccccc3nc2Nc2ccc3nsnc3c2)cc1
4. COc1cc(N2CCC(N3CCN(C)CC3)CC2)ccc1Nc1ncnc(Nc2ccccc2S(=O)(=O)C(C)C)n1
5. Cn1cc(-c2ccc(F)c(C(F)(F)F)c2)nc1C1CCN(c2ncnc3[nH]ncc23)CC1
6. COC(=O)N[C@@H](C)CNc1nccc(-c2cn(C(C)C)nc2-c2cc(Cl)cc(NS(C)(=O)=O)c2F)n1
7. C1=C/COCc2cc(ccc2OCCN2CCCC2)Nc2nccc(n2)-c2cccc(c2)COC/1
8. Cn1ncc(Cl)c1-c1cc(C(=O)N[C@H](CN)Cc2cccc(F)c2)sc1Cl

1: > 30 µM (inactive); 2: > 30 µM (inactive); 3: > 30 µM (inactive); 4: > 30 µM (inactive); 5: > 30 µM (inactive); 6: > 30 µM (inactive); 7: > 30 µM (inactive); 8: > 30 µM (inactive)

###

- measuredTarget: Serine/threonine-protein kinase N2 (Homo sapiens); further: in the data inactive means no Kd found up to 30 µM
- Sequence (Q16513 whole entry): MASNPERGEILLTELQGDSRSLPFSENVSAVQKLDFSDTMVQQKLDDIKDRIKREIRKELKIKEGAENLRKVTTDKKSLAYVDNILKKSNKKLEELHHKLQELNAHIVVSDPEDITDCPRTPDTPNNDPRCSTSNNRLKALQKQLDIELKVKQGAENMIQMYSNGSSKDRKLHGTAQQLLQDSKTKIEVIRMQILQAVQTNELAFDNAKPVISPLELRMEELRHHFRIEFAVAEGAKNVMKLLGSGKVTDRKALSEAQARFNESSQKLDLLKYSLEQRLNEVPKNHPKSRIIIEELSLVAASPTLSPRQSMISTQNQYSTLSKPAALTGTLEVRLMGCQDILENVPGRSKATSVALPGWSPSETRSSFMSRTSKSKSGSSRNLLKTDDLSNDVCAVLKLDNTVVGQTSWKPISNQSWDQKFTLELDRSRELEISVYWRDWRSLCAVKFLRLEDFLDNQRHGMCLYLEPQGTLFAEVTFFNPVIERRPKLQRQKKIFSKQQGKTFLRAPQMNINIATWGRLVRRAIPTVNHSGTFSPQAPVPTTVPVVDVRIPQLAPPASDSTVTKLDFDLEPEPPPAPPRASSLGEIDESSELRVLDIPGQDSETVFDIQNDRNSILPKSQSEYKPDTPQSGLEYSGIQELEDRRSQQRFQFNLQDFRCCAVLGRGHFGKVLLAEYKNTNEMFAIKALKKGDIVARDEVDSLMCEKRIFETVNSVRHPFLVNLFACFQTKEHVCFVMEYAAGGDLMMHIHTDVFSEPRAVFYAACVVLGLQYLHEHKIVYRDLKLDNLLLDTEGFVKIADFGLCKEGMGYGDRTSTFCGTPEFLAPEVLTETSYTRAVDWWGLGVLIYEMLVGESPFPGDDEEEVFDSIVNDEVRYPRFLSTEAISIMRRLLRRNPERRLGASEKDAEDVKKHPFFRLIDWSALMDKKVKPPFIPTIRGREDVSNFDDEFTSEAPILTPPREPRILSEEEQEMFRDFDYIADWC
Calls of active or inactive are those of the source.
Reply using exactly one outcome from active, inactive

Sample answers from the record:
> print(dat)
                                   compound  qualitativelabel
1  C[C@@H]1CN(Cc2ccc(F)cc2)[C@@H](C)CN1C(=O)c1cc2c(C(=O)C(=O)N(C)C)cn(C)c2cc1Cl [TALMAPIMOD]          inactive
2  COC(=O)[C@@]1(O)C[C@H]2O[C@]1(C)n1c3ccccc3c3c4c(c5c6ccccc6n2c5c31)C(=O)NC4 [K-252A]            active
3  CNC(=O)c1ccc(C)c(-n2c(C)cc(OCc3ccc(F)cc3F)c(Br)c2=O)c1 [PH-797804]          inactive

Hey, what did the test say about C1=C/COCc2cc(ccc2OCCN2CCCC2)Nc2nccc(n2)-c2cccc(c2)COC/1 [PACRITINIB] ? inactive

Identify the outcome logged in this assay for the compound shown: CNS(=O)(=O)Nc1nccc(Cc2c(C)c3ccc(Oc4ncccn4)cc3oc2=O)c1F [AVUTOMETINIB] inactive

Query: recorded result category for COc1cc(OC)c(/C=C/S(=O)(=O)Cc2ccc(OC)c(NCC(=O)O)c2)c(OC)c1 [RIGOSERTIB] in this test inactive

So what was the verdict on COc1ccc(-c2ccc3c(N4CCOC[C@@H]4C)nc(N4CCOC[C@@H]4C)nc3n2)cc1CO [AZD-8055] in this test? inactive

For COc1cc(N2CCC(N3CCN(C)CC3)CC2)ccc1Nc1ncnc(Nc2ccccc2S(=O)(=O)C(C)C)n1 [ASP-3026] , which call appears in the assay record? inactive

What did the test return for "N[C@@H]1CCCN(c2c(/C=C3\SC(=O)NC3=O)cccc2-c2ccccc2)C1" ? inactive

Test call for this compound, please: O=c1sn(-c2cccc3ccccc23)c(=O)n1Cc1ccccc1 [TIDEGLUSIB] inactive

Could you check what this test reported for CCN1CCN(Cc2ccc(-c3cc4c(N[C@H](C)c5ccccc5)ncnc4[nH]3)cc2)CC1 [AEE-788] ? inactive

Look up the recorded call for C[C@@H](c1ccc2nccn2c1)n1nnc2ncc(-c3cnn(C)c3)nc21 [SAVOLITINIB] in this test. inactive

GET /call?item= OCCn1cc(-c2cnc3nnn(Cc4ccc5ncccc5c4)c3n2)cn1 [PF-04217903] returns the recorded outcome of this test. inactive

Write down the call the test reported for this compound. Item: O=C1NC(=O)/C(=C/c2ccc3nccc(-c4ccncc4)c3c2)S1 [GSK-1059615] inactive

Recorded test call requested for C[C@@H](Nc1cc(F)cc(F)c1)c1cc(C(=O)N(C)C)cc2c(=O)cc(N3CCOCC3)oc12 [AZD-8186] inactive

Record lookup: outcome of this test for COCCNCc1ccc(-c2cc3nccc(Oc4ccc(NC(=S)NC(=O)Cc5ccc(F)cc5)cc4F)c3s2)nc1 [GLESATINIB] ? inactive
